So I've got a bunch of binders here, and I need their koff values.
# system-under-test: RSV protein F (recombinant or purified F protein) (human respiratory syncytial virus, …)
# experimental-protocol: SPR Biacore 3000, Fab over amine-coupled recombinant protein F
One number for each entry, in s⁻¹.

binder	koff (s⁻¹)
Fab fragment of antibody 810 (Fab, V domains shown, also called Fab clone 810) VH: QVQLVQSGAEVKKSGSSVKVSCRASGGTFGNYAINWVRQAPGQGLEWVGRIIPVFDTTNYAQKFQGRVTITADRSTNTAIMQLSSLRPQDTAMYYCLRGSTRGWDTDGFDIWGQGTMVTVSS VL: NIQMTQSPSAMSASVGDRVTITCRASQGISNYLVWFQQKPGKVPKRLIYAASSLQSGVPSRFSGSGSGTEFTLTISSLQPEDFATYYCLQHNISPYTFGQGTKLETKR	0.000348

Returns the measured koff for the input binder. Input: Fab fragment of antibody 735 (Fab, V domains shown, also called Fab clone 735) VH: QVQLQESGPGLVKPSETLSLTCTVSNGAIGDYDWSWIRQSPGKGLEWIGNINYRGNTNYNPSLKSRVTMSLRTSTMQFSLKLSSATAADTAVYYCARDVGYGGGQYFAMDVWSPGTTVTVSS VL: EIVLTQSPATLSLSPGERATLSCRASQSVNSHLAWYQQKPGQAPRLLIYNTFNRVTGIPARFSGSGSGTDFTLTISSLATEDFGVYYCQQRSNWPPALTFGGGTKVEIKR
9.18e-05
